molecular target: Ba/F3-FGFR3-transfected cells (Homo sapiens); construct: BAF3-FGFR3 (MIN IL3) pIC50; other: minus IL3; test: Ba/F3-FGFR3 (minus IL3) cellular proliferation assay, Alamar Blue; format: cell-based
Measured BAF3-FGFR3 (MIN IL3) pIC50 by item
quantity-kind: BAF3-FGFR3 (MIN IL3) pIC50

{"molecule": "COc1cc(OC)c(Cl)c(/N=c2\\ccc3ncc(-c4cnn(C)c4)nc3n2CC2CCC(=O)N2)c1Cl (single isomer, unassigned) [Compound 87]", "system": "Ba/F3-FGFR3-transfected cells (Homo sapiens)", "measurement": "~6.93"}
{"molecule": "COc1cc(OC)c(F)c(N(Cc2nc[nH]c2C)c2ccc3ncc(-c4cnn(C)c4)nc3n2)c1 [Compound 109]", "system": "Ba/F3-FGFR3-transfected cells (Homo sapiens)", "measurement": "~7.65"}
{"molecule": "COCC(O)CN(c1cc(OC)cc(OC)c1)c1ccc2ncc(-c3cnn(C)c3)nc2n1 (stereo not drawn) [Compound 7]", "system": "Ba/F3-FGFR3-transfected cells (Homo sapiens)", "measurement": 7.1}
{"molecule": "COc1cc(OC)c(F)c(N(Cc2nccn2CCO)c2ccc3ncc(-c4cnn(C)c4)nc3n2)c1 [Compound 145]", "system": "Ba/F3-FGFR3-transfected cells (Homo sapiens)", "measurement": 7.04}
{"molecule": "COc1ccc(Cl)c(/N=c2\\ccc3ncc(-c4cnn(C)c4)nc3n2CC2CCC(=O)N2)c1Cl (stereo not drawn) [Compound 92]", "system": "Ba/F3-FGFR3-transfected cells (Homo sapiens)", "measurement": "~5.61"}
{"molecule": "COc1cc(OC)c(F)c(N(Cc2nc(Br)c[nH]2)c2ccc3ncc(-c4cnn(C)c4)nc3n2)c1 [Compound 238]", "system": "Ba/F3-FGFR3-transfected cells (Homo sapiens)", "measurement": "~8.45"}
{"molecule": "COc1cc(/N=c2\\ccc3ncc(-c4cnn(C)c4)nc3n2CC2COC(=O)N2)c(F)c(OC)c1 (stereo not drawn) [Compound 123]", "system": "Ba/F3-FGFR3-transfected cells (Homo sapiens)", "measurement": 7.16}
{"molecule": "CNCCN(c1ccc2ncc(-c3cn[nH]c3)nc2n1)c1c(F)c(OC)cc(OC)c1F [Compound 106]", "system": "Ba/F3-FGFR3-transfected cells (Homo sapiens)", "measurement": "~7.12"}
{"molecule": "COc1cc(OC)cc(N(CCN2CCOCC2)c2ccc3ncc(-c4cnn(C)c4)nc3n2)c1 [Compound 146]", "system": "Ba/F3-FGFR3-transfected cells (Homo sapiens)", "measurement": "~7.14"}

* * *

molecular target: FGFR2 (h) (Homo sapiens); experiment: FGFR2 (enzymatic assay), TR-FRET; format: biochemical; settings: enzymatic assay; read-out: FGFR 2 pIC50 (converted)
Sequence (P21802 22-821): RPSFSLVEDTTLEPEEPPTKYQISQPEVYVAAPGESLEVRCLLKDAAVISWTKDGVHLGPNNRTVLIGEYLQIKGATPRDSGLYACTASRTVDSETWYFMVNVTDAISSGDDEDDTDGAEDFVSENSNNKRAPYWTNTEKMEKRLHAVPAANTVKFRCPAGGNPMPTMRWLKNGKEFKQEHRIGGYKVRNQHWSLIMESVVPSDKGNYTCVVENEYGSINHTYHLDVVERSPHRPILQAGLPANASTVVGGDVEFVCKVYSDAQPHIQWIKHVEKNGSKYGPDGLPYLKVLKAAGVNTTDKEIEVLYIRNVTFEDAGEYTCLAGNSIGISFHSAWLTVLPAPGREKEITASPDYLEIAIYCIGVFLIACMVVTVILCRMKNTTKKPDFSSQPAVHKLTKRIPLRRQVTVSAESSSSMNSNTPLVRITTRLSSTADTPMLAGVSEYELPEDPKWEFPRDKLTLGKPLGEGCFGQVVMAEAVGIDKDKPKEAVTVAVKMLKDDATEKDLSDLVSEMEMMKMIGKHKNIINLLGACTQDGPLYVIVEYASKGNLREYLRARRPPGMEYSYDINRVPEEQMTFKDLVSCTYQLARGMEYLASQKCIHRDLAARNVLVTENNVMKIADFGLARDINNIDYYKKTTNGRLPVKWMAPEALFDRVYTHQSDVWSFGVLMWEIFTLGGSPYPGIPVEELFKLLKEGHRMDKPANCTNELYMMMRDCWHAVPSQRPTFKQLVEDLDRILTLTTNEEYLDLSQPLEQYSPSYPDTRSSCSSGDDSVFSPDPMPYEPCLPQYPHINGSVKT
Measured IC50 by item

{"compound": "CCn1/c(=N/c2c(F)c(OC)cc(OC)c2F)ccc2ncc(-c3cnn(C)c3)nc21 [Compound 257]", "IC50, nM": 1.35}
{"compound": "COc1cc(OC)c(F)c(N(CC2COC(=O)N2)c2ccc3ncc(-c4cnn(C)c4)nc3n2)c1 (stereo not drawn) [Compound 124]", "IC50, nM": 2.75}
{"compound": "COc1cc(OC)c(F)c(N(Cc2nc(C)c[nH]2)c2ccc3ncc(-c4cnn(C)c4)nc3n2)c1 [Compound 135]", "IC50, nM": 1.78}

* * *

Measured IC50 by item
biological target: FGFR3 (h) (Homo sapiens); assay: FGFR3 (enzymatic assay), TR-FRET; format: biochemical; settings: read-out: FGFR 3 pIC50 (converted)
Sequence (P22607 23-806): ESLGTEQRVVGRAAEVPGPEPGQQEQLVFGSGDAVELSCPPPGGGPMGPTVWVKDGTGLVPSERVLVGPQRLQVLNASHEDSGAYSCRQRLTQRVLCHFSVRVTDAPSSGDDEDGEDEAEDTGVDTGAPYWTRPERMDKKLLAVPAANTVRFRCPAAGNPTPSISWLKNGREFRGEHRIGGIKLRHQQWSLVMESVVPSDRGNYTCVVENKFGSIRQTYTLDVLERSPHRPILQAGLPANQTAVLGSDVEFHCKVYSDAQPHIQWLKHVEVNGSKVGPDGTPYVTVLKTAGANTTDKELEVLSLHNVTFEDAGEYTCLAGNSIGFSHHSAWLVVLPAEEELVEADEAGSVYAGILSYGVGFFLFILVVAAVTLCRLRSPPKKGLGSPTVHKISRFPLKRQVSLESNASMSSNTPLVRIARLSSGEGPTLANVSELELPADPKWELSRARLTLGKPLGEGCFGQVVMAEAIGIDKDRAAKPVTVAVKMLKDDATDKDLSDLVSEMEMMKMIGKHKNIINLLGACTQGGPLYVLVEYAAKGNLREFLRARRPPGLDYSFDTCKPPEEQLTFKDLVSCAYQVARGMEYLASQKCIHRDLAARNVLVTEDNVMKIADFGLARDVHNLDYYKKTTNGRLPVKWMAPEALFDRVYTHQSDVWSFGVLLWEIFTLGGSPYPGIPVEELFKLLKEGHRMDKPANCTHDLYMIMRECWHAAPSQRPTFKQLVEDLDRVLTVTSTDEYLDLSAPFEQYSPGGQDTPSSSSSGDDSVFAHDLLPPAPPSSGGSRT

{"compound": "COc1cc(OC)c(F)c(N(Cc2nccn2C)c2ccc3ncc(-c4cnn(C)c4)nc3n2)c1", "IC50 [nM]": 2.95}
{"compound": "COc1cc(OC)c(F)c(N(Cc2ncc[nH]2)c2ccc3ncc(N4CCOCC4)nc3n2)c1", "IC50 [nM]": 1.2}
{"compound": "COc1cc(/N=c2\\ccc3ncc(-c4cnn(C)c4)nc3n2CC2CC(O)C(=O)N2)c(F)c(OC)c1 (centres unmarked)", "IC50 [nM]": 1.1}
{"compound": "CCOCc1c[nH]c(CN(c2ccc3ncc(-c4cnn(C)c4)nc3n2)c2cc(OC)cc(OC)c2F)n1", "IC50 [nM]": 2.51}
{"compound": "COc1cc(OC)c(F)c(N(CC(O)c2cnn(C)c2)c2ccc3ncc(-c4cnn(C)c4)nc3n2)c1 (centres unmarked)", "IC50 [nM]": 4.07}

* * *

molecular target: FGFR4 (h) (Homo sapiens, UniProt P22455); test: FGFR4 (enzymatic assay), TR-FRET; assay type: biochemical; conditions: FGFR 4 pIC50, enzymatic assay; average values if tested multiple times
Counter-ions that a name gives are not always drawn.

{"compound": "COc1cc(OC)cc(N(CCO)c2ccc3ncc(-c4cnn(C)c4)nc3n2)c1", "IC50": "5.01 nM"}
{"compound": "COc1cc(OC)c(F)c(N(Cc2nc[nH]n2)c2ccc3ncc(-c4cnn(C)c4)nc3n2)c1F", "IC50": "2.24 nM"}
{"compound": "COc1cc(OC)c(F)c(N(Cc2ncc[nH]2)c2ccc3ncc(-c4cnn(C)c4)nc3n2)c1 [23-phosphate salt]", "IC50": "0.977 nM"}

* * *

Measured BAF3-FGFR4 pIC50 by item
Biological target: Ba/F3-FGFR4-transfected cells (Homo sapiens)
Sequence (P22455 whole entry, change not shown): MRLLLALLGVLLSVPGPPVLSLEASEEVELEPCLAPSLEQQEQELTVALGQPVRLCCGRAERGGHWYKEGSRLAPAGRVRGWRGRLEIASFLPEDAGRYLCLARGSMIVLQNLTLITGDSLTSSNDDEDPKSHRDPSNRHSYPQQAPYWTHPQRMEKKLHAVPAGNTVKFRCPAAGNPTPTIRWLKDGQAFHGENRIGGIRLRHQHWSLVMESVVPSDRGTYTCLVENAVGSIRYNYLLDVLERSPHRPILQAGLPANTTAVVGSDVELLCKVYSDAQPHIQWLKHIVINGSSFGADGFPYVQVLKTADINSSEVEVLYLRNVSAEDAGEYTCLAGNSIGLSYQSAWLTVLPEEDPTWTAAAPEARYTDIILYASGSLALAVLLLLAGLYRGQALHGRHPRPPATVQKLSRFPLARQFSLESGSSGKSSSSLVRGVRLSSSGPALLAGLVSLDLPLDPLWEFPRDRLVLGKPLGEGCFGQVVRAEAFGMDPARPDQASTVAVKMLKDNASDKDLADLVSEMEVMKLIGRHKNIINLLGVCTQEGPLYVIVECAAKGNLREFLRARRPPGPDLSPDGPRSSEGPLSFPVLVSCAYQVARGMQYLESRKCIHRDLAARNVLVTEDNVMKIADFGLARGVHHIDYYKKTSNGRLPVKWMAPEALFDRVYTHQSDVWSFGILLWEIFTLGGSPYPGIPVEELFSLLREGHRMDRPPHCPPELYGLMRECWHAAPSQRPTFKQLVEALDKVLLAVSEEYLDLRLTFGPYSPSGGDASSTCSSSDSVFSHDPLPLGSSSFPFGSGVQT
Experiment: Ba/F3-FGFR4 cellular proliferation assay, Alamar Blue
Type: cell-based
Description: Ba/F3-FGFR4 (Cellular Proliferation Assay) In a 384 well plate, 100 n1 of compound dilution in DMSO was sprayed before adding 50 μl cell culture medium (phenol red free RPMI-1640, 10% FBS, 2 mM L-Glutamine and 50 μg/ml Gentamycin) containing 20000 cells per well of Ba/F3-FGFR4-transfected cells. Cells were put in an incubator at 37° C. and 5% CO2. […]
quantity-kind: BAF3-FGFR4 pIC50

{"compound": "COCC(O)CN(c1ccc2ncc(-c3cnn(C)c3)nc2n1)c1cc(OC)cc(OC)c1F (single isomer, unassigned) [Compound 58]", "measurement": 7.09}
{"compound": "COc1cc(OC)c(F)c(N(Cc2ccn(C)n2)c2ccc3ncc(-c4cnn(C)c4)nc3n2)c1 [Compound 128]", "measurement": 7.12}
{"compound": "COc1cc(OC)cc(N(CCNC(C)C)c2ccc3ncc(-c4cnn(C)c4)nc3n2)c1 [Compound 1]", "measurement": "~7.06"}
{"compound": "COc1cc(OC)cc(N(Cc2nc[nH]n2)c2ccc3ncc(-c4cnn(C)c4)nc3n2)c1 [Compound 71]", "measurement": 7.14}
{"compound": "COc1cc(/N=c2\\ccc3ncc(-c4cnn(C)c4)nc3n2CC2CCOC2)c(F)c(OC)c1 (single isomer, unassigned) [Compound 169]", "measurement": 7.20}
{"compound": "COc1cc(OC)cc(N(CC2COC2)c2ccc3ncc(-c4cnn(C)c4)nc3n2)c1 [Compound 142]", "measurement": 5.10}
{"compound": "COc1cc(OC)cc(N(Cc2nnco2)c2ccc3ncc(-c4cnn(C)c4)nc3n2)c1 [Compound 217]", "measurement": 6.03}
{"compound": "COc1cc(OC)c(F)c(N(CCN)c2ccc3ncc(-c4cnn(C)c4)nc3n2)c1 [Compound 168]", "measurement": 6.72}

* * *

Target: Ba/F3-FGFR3-transfected cells (Homo sapiens, UniProt P22607)
Construct: BAF3-FGFR3 (MIN IL3) pIC50; other: minus IL3
Sequence (P22607 whole entry, change not shown): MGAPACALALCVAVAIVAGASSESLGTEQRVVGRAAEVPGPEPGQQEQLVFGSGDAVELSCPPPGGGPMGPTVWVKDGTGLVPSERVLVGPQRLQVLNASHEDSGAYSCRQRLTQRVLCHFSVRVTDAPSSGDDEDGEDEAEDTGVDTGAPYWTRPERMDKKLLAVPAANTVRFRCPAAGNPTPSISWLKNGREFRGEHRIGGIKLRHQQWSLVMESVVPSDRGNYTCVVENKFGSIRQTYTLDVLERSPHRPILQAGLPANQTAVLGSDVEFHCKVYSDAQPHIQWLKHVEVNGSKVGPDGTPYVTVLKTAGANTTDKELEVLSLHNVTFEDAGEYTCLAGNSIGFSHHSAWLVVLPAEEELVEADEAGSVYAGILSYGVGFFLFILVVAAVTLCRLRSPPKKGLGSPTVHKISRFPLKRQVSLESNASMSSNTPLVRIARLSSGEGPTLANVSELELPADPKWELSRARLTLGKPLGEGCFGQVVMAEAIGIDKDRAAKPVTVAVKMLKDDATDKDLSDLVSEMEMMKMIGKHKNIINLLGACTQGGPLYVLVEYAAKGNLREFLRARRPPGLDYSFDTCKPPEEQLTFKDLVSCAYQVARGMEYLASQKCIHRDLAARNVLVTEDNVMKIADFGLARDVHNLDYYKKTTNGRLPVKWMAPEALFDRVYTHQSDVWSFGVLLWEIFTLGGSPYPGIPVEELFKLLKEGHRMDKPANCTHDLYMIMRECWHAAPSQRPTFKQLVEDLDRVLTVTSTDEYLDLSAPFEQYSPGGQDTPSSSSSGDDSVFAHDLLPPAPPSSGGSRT
Assay: Ba/F3-FGFR3 (minus IL3) cellular proliferation assay, Alamar Blue
Format: cell-based
Method: Ba/F3-FGFR3 (Minus IL3 or Plus IL3) (Cellular Proliferation Assay) In a 384 well plate, 100 nl of compound dilution in DMSO was sprayed before adding 50 μl cell culture medium (phenol red free RPMI-1640, 10% FBS, 2 mM L-Glutamine and 50 μg/ml Gentamycin) containing 20000 cells per well of Ba/F3-FGFR3-transfected cells. Cells were put in an incubator at 37° C. and 5% CO2. […]
Where a name gives a salt, the structure may show the parent alone.
quantity-kind: BAF3-FGFR3 (MIN IL3) pIC50

{"molecule": "COc1cc(OC)c(F)c(N(Cc2ncc[nH]2)c2ccc3ncc(-c4cnn(CC(C)(C)O)c4)nc3n2)c1 [Compound 240]", "system": "Ba/F3-FGFR3-transfected cells (Homo sapiens, UniProt P22607)", "measurement": "~8.52"}
{"molecule": "COc1cc(OC)c(F)c(N(Cc2ncc[nH]2)c2ccc3ncc(-c4cnn(C5COC5)c4)nc3n2)c1 [Compound 253]", "system": "Ba/F3-FGFR3-transfected cells (Homo sapiens, UniProt P22607)", "measurement": "~8.63"}
{"molecule": "COc1cc(OC)cc(N(CC2CCCCO2)c2ccc3ncc(-c4cnn(C)c4)nc3n2)c1 (centres unmarked) [Compound 129]", "system": "Ba/F3-FGFR3-transfected cells (Homo sapiens, UniProt P22607)", "measurement": "~7.15"}
{"molecule": "CCn1/c(=N/c2c(F)c(OC)cc(OC)c2F)ccc2ncc(-c3cnn(C)c3)nc21 [Compound 257]", "system": "Ba/F3-FGFR3-transfected cells (Homo sapiens, UniProt P22607)", "measurement": "~8.66"}
{"molecule": "COc1cc(OC)cc(N(CC2CCC(=O)N2)c2ccc3ncc(-c4cnn(C)c4)nc3n2)c1 (centres unmarked) [Compound 49]", "system": "Ba/F3-FGFR3-transfected cells (Homo sapiens, UniProt P22607)", "measurement": "~6.85"}
{"molecule": "COc1ccc(Cl)c(N(CC2CCC(=O)N2)c2ccc3ncc(-c4cnn(C)c4)nc3n2)c1Cl (centres unmarked) [Compound 93]", "system": "Ba/F3-FGFR3-transfected cells (Homo sapiens, UniProt P22607)", "measurement": "~5.59"}
{"molecule": "COc1cc(OC)c(F)c(N(Cc2ncc[nH]2)c2ccc3ncc(-c4cnn(C)c4)nc3n2)c1 [23-phosphate salt]", "system": "Ba/F3-FGFR3-transfected cells (Homo sapiens, UniProt P22607)", "measurement": "~8.64"}
{"molecule": "COc1cc(OC)cc(N(Cc2ncc[nH]2)c2ccc3ncc(-c4cn[nH]c4)nc3n2)c1 [Compound 141]", "system": "Ba/F3-FGFR3-transfected cells (Homo sapiens, UniProt P22607)", "measurement": "~8.13"}
